Each recorded value in this set is attributed to patent US12319684B2.

Assign Emax to each entry below.
# assayed system: human apelin receptor (APJ, AGTRL-1, APLNR) (Homo sapiens, UniProt P35414)
# Construct: host or cells: Chinese hamster ovary cells
# Sequence (P35414 1-380): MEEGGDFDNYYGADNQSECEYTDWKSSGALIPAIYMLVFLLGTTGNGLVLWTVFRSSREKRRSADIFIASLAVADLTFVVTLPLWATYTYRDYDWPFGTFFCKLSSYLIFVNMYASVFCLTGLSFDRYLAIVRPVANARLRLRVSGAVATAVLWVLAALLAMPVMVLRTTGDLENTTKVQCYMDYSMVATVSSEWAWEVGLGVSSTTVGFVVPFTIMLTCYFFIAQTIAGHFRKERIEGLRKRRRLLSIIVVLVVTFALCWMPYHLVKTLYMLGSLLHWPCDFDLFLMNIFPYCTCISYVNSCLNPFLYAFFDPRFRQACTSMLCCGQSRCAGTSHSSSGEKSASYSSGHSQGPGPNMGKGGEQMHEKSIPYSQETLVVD
# assay remarks: APJ cAMP cell-based assay (forskolin-stimulated CHO cells, enzyme fragment complementation)
# condition label: CHO, 0.5 h; percentage of the maximal apelin-13 response at 1 nM (control); read-out: APJ cAMP % resp (efficacy)
Report as: number unit

Would you kindly share the measured Emax for COc1ccccc1-n1c(OCc2cc(=O)n3cc(C)ccc3n2)nnc1-c1cccs1 ?
52%

What does the record list as Emax for COc1ccccc1-n1c(SCc2nc(=O)c3cc(Cl)ccc3[nH]2)nnc1-c1cccs1 ?
116%

I have this compound here, COc1ccccc1-n1c(OCc2ccccc2)nnc1-c1cccs1 , and I need its recorded Emax.
52%

Param item = COc1ccccc1-n1c(SCc2cc(=O)n3cc(C)ccc3n2)nnc1-c1cccn1C ; retrieve measured Emax.
58%

Emax for COc1ccccc1-n1c(SCc2nc(=O)c3ccc(Cl)cc3[nH]2)nnc1-c1cccs1 ?
87%

Fill blank: measured Emax of the compound COc1ccccc1-n1c(SCc2cc(F)cc(F)c2)nnc1-c1cccs1 is ____.
111%

Recorded Emax for COc1ccccc1-n1c(SCc2csc(-c3ccc([N+](=O)[O-])cc3)n2)nnc1-c1cccs1 , please?
120%

// returns reported Emax for input COc1ccccc1-n1c(SCc2ccc(Cl)cc2)nnc1-c1cccs1
134%

---

# assayed system: human apelin receptor (APJ, AGTRL-1, APLNR) (Homo sapiens, UniProt P35414)
# Construct: host or cells: Chinese hamster ovary cells
# assay remarks: APJ cAMP cell-based assay (forskolin-stimulated CHO cells, enzyme fragment complementation)
# condition label: CHO cells expressing human APJ, forskolin-stimulated, 0.5 h incubation; 50% of control (apelin-13, 1 nM) response; read-out: APJ cAMP EC50
Please go through the items and note down their pEC50.
Bear in mind: pEC50 is minus log10 of a mol/L concentration; give just that figure.

// returns reported pEC50 for input COc1ccccc1-n1c(SCc2nc(=O)c3cccc(C)c3[nH]2)nnc1-c1cccs1
6.26

Tell me the measured pEC50 of COc1ccc(-c2nc(CSc3nnc(-c4cccs4)n3-c3ccccc3OC)co2)cc1 , please.
5.51

Given Cc1ccc2nc(CSc3nnc(-c4cccs4)n3-c3ccccc3Cl)cc(=O)n2c1 , state its recorded pEC50.
6.60

Requested read-out: pEC50. Entry: COc1ccccc1-n1c(SCc2ccc(C)cc2)nnc1-c1cccs1
5.56

Look at this compound and give its reported pEC50. COc1ccccc1-n1c(SCc2nc(=O)c3cc(Br)ccc3[nH]2)nnc1-c1cccs1
7.50

// pEC50 lookup, key: COc1ccccc1-n1c(SCc2cc(=O)n3cc(C)ccc3n2)nnc1-c1ccc(C)cc1
5.82

What value of pEC50 has been recorded for this entry: COc1ccccc1-n1c(SCc2nc(=O)c3cc(F)ccc3[nH]2)nnc1-c1cccs1
8.05

Reported pEC50 for COc1ccccc1-n1c(SCc2cc(=O)n3cc(C)ccc3n2)nnc1-c1cccs1 : what is it?
7.55

Looking for the measured pEC50 of Cc1ccc2nc(CSc3nnc(-c4cccs4)n3-c3ccccc3OC(F)(F)F)cc(=O)n2c1 , can you help?
7.76

# lookup: pEC50 of COc1ccccc1-n1c(SCc2csc(-c3ccc(C(F)(F)F)cc3)n2)nnc1-c1cccs1
5.84

Endpoint output: pEC50 of COc1ccccc1-n1c(SCc2nc(=O)c3ccc(F)cc3[nH]2)nnc1-c1cccs1 . Value?
6.90

Which pEC50 reading was recorded for the compound COc1ccccc1-n1c(SCc2cc(=O)n3cc(C)ccc3n2)nnc1-c1nccs1 ?
6.11

// pEC50 lookup, key: COc1ccccc1-n1c(SCc2cc(=O)n3cc(Br)ccc3n2)nnc1-c1cccs1
8.11

So what's the measured pEC50 for this one? COc1ccc2[nH]c(CSc3nnc(-c4cccs4)n3-c3ccccc3OC)nc(=O)c2c1
6.52
